# System: Staphylococcus epidermidis
# methodNotes: Antibacterial activity against methicillin-resistant Staphylococcus epidermidis incubated for 16 hrs by agar dilution method
# Format: functional
endpointName: MIC (µg/mL)
All answers are understood in µg/mL, so give the number only.

Please give measured MIC of the following entry: "CC(=S)NC[C@@H]1OC(=O)N2c3ccc(-c4ccc(N5CCOC5=O)nc4)cc3SC[C@@H]12"
1

----------
# methodNotes: Half life in Sprague-Dawley rat liver microsomes at 0.1 uM in presence of NADPH by LC/MS/MS method
# Format: ADME
endpointName: half-life at 0.1 µM (h)
Record the value in h, omitting the unit from your answer.

Use these answered entries as a reference point.
{"columns": ["compound", "half-life at 0.1 µM [h]"],
 "data": [
  ["CC(=O)NC[C@@H]1OC(=O)N2c3ccc(-c4ccc(N5CCOC5=O)nc4)cc3SC[C@@H]12", 6.13],
  ["CC(=O)NC[C@@H]1OC(=O)N2c3ccc(-c4ccc(C5CN(C)C(=O)O5)nc4)cc3SC[C@@H]12 (single isomer, unassigned)", 3.85],
  ["CC(=S)NC[C@@H]1OC(=O)N2c3ccc(-c4ccc(N5CCOC5=O)nc4)cc3SC[C@@H]12", 0.35]
]}

Quick one: give measured half-life at 0.1 µM for "CN1C[C@H](c2ccc(-c3ccc4c(c3)OC[C@H]3[C@H](CO)OC(=O)N43)cn2)OC1=O"
16.7
